target.or.test.system: Mu opioid receptor (MOR) (Homo sapiens, UniProt P35372); also: unit not given here
Sequence (P35372 whole entry): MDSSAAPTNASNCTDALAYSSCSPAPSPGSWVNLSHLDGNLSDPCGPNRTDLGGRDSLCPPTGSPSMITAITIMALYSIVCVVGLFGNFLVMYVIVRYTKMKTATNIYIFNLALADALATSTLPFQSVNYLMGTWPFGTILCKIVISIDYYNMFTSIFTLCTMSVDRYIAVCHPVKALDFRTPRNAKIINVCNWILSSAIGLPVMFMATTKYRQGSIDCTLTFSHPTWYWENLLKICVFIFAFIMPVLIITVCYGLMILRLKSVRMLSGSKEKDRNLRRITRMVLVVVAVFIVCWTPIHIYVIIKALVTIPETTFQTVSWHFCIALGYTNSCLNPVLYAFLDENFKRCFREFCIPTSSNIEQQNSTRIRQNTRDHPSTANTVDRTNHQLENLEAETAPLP
assay.comment: cell-based
Assay type: cell-based
Square brackets hold non-standard residues; d marks the D form. Peptide text beside a SMILES is read from it. Phe(4-NO2) = N[C@@H](Cc1ccc([N+](=O)[O-])cc1)C(=O)O; Sar = CNCC(=O)O
quantity.kind: cAMP assay MOR 10 μM

{"columns": ["molecule", "quantity.kind", "measured.value"],
 "data": [
  ["CC(C)C[C@H](NC(=O)[C@H](Cc1ccc([N+](=O)[O-])cc1)NC(=O)CN(C)C(=O)[C@@H](N)Cc1ccc(O)cc1)C(=O)N[C@H](CCCNC(=N)N)C(=O)N[C@@H](CCCNC(=N)N)C(N)=O [SEQ ID NO. 5, NH2-Tyr-Sar-(4-NO2)Phe-Leu-DArg-Arg-NH2] (H-Y[Sar][Phe(4-NO2)]L[dR]R-NH2)", "cAMP assay MOR 10 μM", 4.32],
  ["CC(C)C[C@H](NC(=O)[C@H](Cc1ccccc1)NC(=O)CN(C)C(=O)[C@@H](N)Cc1ccc(O)cc1)C(=O)N[C@H](CCCNC(=N)N)C(=O)N[C@H](CCCNC(=N)N)C(N)=O [SEQ ID NO. 7, NH2-Tyr-Sar-Phe-Leu-DArg-DArg-NH2] (H-Y[Sar]FL[dR][dR]-NH2)", "cAMP assay MOR 10 μM", 4.19],
  ["CC(C)C[C@@H](NC(=O)[C@@H](Cc1ccccc1)NC(=O)[C@H](N)Cc1ccccc1)C(=O)N[C@H](CCCCN)C(=O)N1CCC(N)(C(=O)O)CC1 [SEQ ID NO. 35, DPhe-DPhe-DLeu-DLys-Cap-CO2H, reference compound]", "cAMP assay MOR 10 μM", 8.07],
  ["CC(C)C[C@H](NC(=O)[C@H](Cc1ccccc1)NC(=O)CN(C)C(=O)[C@@H](N)Cc1ccc(O)cc1)C(=O)N[C@@H](CCCNC(=N)N)C(=O)N[C@@H](CCCNC(=N)N)C(N)=O [SEQ ID NO. 2, NH2-Tyr-Sar-Phe-Leu-Arg-Arg-NH2] (H-Y[Sar]FLRR-NH2)", "cAMP assay MOR 10 μM", 12.41]
]}

Data provenance is patent US20240301023A1.
